Documented PBM E-score across a set of sequences
system.under.test: Yer184c (UniProt P39961)
Sequence: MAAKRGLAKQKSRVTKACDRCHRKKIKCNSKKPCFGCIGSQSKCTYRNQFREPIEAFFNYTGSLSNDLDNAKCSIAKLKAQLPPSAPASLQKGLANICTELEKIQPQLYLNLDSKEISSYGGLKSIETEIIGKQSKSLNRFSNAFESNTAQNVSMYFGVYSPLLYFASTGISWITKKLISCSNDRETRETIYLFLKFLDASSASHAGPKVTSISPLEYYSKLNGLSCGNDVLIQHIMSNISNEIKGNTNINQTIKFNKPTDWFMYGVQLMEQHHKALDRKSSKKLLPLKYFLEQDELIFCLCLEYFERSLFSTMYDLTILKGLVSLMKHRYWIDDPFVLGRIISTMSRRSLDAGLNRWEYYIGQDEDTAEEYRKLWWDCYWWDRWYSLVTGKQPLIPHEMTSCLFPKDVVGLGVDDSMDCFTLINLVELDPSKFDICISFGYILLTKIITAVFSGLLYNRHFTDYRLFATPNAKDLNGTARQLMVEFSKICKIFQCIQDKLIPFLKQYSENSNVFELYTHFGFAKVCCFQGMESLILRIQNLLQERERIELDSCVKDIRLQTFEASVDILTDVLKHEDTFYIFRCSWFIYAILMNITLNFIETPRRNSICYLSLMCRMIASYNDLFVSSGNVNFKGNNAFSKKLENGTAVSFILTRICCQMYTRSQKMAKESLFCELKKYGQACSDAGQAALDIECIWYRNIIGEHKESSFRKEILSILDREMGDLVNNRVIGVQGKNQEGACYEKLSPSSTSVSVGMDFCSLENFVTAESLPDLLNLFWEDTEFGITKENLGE
protocol.text: PBM E-score (8-mer binding enrichment) (E-score (-0.5 to 0.5)); higher = stronger / more preferred TF binding
condition.info: protein concentration: 100 nM; construct: GST-full length
Whole data set: some 33,000 sequences, median “E-score (-0.5 to 0.5)” near -0.016, cut for the highest 2% near 0.3. The sample as a whole holds a higher share of the highest values than the screen did.
Lab note: write the figure by itself, no unit.

// below: answered sequences
CGGATCAG 0.224
ATCAATGA 0.2
ACCCGGGT 0.299
TCGGCTCA 0.2
GTCGCCGA 0.219

Given CGGATGGA , state its recorded PBM E-score.
0.207

Would you kindly share the measured PBM E-score for ATTCCGTA ?
0.322

Entry AGAGATAC : reported PBM E-score = ?
-0.0106

Given CAACTAGC , state its recorded PBM E-score.
0.0974

* * *

system.under.test: Yer184c (UniProt P39961)
Sequence: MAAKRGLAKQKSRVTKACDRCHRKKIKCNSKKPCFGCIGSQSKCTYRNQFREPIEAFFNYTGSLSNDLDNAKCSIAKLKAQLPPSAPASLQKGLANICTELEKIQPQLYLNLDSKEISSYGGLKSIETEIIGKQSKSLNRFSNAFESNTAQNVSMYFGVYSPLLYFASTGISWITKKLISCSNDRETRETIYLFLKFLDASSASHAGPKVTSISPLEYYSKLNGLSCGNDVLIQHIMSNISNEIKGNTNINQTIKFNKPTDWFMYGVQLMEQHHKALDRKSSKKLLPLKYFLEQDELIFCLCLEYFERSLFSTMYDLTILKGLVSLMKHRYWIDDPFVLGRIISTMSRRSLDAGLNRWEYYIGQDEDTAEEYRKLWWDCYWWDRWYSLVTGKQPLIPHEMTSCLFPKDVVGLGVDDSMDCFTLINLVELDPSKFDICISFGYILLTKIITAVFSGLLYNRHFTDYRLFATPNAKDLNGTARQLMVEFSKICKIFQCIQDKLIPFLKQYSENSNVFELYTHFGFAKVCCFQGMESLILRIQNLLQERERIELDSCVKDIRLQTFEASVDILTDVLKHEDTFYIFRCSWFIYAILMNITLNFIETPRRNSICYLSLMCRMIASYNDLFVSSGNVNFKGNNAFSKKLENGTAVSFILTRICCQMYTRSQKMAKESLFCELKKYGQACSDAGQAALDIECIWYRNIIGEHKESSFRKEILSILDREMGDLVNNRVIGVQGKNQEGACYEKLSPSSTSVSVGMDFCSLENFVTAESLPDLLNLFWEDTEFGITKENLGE
protocol.text: PBM E-score (8-mer binding enrichment) (E-score (-0.5 to 0.5)); higher = stronger / more preferred TF binding
condition.info: protein concentration: 100 nM; construct: GST-full length
Whole data set: some 33,000 sequences, median “E-score (-0.5 to 0.5)” near -0.016, cut for the highest 2% near 0.3. Shown is part of a subset that was picked to be rich in the highest values.
Outcome label depends on PBM E-score relative to 0.06: at/above gives yes (1), below gives no (0).

Decide: is the reported value of PBM E-score for GATGCCGA equal to or greater than 0.06?
yes (1)

Say whether ATTTCTCC shows PBM E-score of 0.06 or more.
yes (1)

Has ATTTTTCG a recorded PBM E-score greater than or equal to 0.06?
yes (1)

Is the recorded value of PBM E-score equal to or greater than 0.06 for this sequence? GTTCTGGA
no (0)

# check: PBM E-score of AGAGAGAT is greater than or equal to 0.06
no (0)

Is the recorded value of PBM E-score equal to or greater than 0.06 for this sequence? CGCCGAAC
yes (1)

Entry GTCCGTTA : is its PBM E-score no less than 0.06?
yes (1)

// inclusive: PBM E-score at least 0.06? input: ATCCGTTC
yes (1)

Textbook exercise: given the entry TAAAGCGA , state whether its PBM E-score is greater than or equal to 0.06.
no (0)

Record GGACGCCA ; criterion: PBM E-score no lower than 0.06. Met?
no (0)
